System: Rattus norvegicus
Measurement Parameters: subchronic; duration: 90 days
Parameter: NOAEL. Scope: all listed entries.
All answers are understood in mg/kg-day, so give the number only.

>>> readout_value("c1csc(SSc2cccs2)c1 [2-Thienyl disulfide]")
0.29
>>> readout_value("Cc1cc(SC(=O)CC(C)C)c(C)o1")
0.73
>>> readout_value("CN(C)C")
90
>>> readout_value("CN(C)C.Cl [Trimethylamine hydrochloride]")
144

Next up:
# lookup: NOAEL of C=C(C)c1ccc(C)cc1
0.625

----------
Parameter: LD50. Scope: all listed entries.
System: Colinus virginianus
Measurement Parameters: acute; oral; mortality
All answers are understood in mg/kg-day, so give the number only.

# lookup: LD50 of O=c1oc2ccccc2c(O)c1C1CC(c2ccc(-c3ccccc3)cc2)Cc2ccccc21 (centres undefined)
56

# lookup: LD50 of O=C(O)CNCP(=O)(O)O [Glyphosate]
4330
